For each entry below, report its Gluconeogenesis inhibition (100 uM) Aver. value.
- System: HepG2 cells
- assay-comment: Measurement of gluconeogenesis inhibitory ability (14C-lactate, glucose formed in cells)
- Assay type: cell-based
- particulars: 100 uM compound, 24 hours, HepG2; lower value = stronger gluconeogenesis inhibition
Numbers only.

Give measured Gluconeogenesis inhibition (100 uM) Aver. for every item shown.
1. Cl.N=C(N)NC(=Nc1ccc(Br)cc1)NCCc1cccs1 [Example 33]
2. Cl.N=C(N)NC(=Nc1cccc(C(F)(F)F)c1)NCCc1cccs1 [Example 14]
3. COCCN=C(NCCc1cccs1)NC(=N)N.Cl [Example 24]

Resp:
[17.03, 8.75, 78.89]

Please go through the list and note Gluconeogenesis inhibition (100 uM) Aver. for each compound.
1. Cc1cccc(N=C(NCCc2cccs2)NC(=N)N)c1.Cl [Example 27]
2. Cl.N=C(N)NC(=Nc1ccc(F)cc1)NCCc1cccs1 [Example 18]
3. CC(C)(C)c1ccc(N=C(NCCc2cccs2)NC(=N)N)cc1.Cl [Example 28]
4. CC(C)N=C(NCCc1cccs1)NC(=N)N.Cl [Example 41]
5. Cl.N=C(N)NC(=Nc1cccc2ccccc12)NCCc1cccs1 [Example 3]
6. Cc1ccc(N=C(NCCc2cccs2)NC(=N)N)cc1.Cl [Example 19]

Resp:
[56.42, 86.69, 2.57, 97.81, 3.73, 74.32]

Provide the reported Gluconeogenesis inhibition (100 uM) Aver. of each entry below, same order.
1. Cl.N=C(N)NC(=NCc1ccccc1)NCCc1cccs1 [Example 8]
2. CCCCCCN=C(NCCc1cccs1)NC(=N)N.Cl [Example 4]
3. Cl.N=C(N)NC(=NC1CCCCCC1)NCCc1cccs1 [Example 22]
4. Cl.N=C(N)NC(=Nc1ccc(-c2ccccc2)cc1)NCCc1cccs1 [Example 35]
5. Cl.N=C(N)NC(=NCC1CC1)NCCc1cccs1 [Example 43]

Resp:
[81.27, 26.40, 96.63, 109.62, 99.28]
